Tgt: T1, Recombinant human CD123 SP1 ECD-His tag protein (human, UniProt P26951 20-305)
T1 construct: bought from R&D Systems (#301-R3/CF); biotinylated for some assays; also called rhCD123 SP1; huCD123 ECD SP1
T1 sequence: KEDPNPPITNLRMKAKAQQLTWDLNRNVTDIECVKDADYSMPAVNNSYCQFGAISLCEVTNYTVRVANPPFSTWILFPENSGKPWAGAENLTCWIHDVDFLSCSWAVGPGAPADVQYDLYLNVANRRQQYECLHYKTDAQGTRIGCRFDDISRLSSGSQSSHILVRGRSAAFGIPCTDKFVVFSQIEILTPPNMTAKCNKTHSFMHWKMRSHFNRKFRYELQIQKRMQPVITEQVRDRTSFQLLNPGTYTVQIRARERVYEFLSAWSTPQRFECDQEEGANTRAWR
Test method notes: SPR ProteOn, captured mAb
Entries and their koff

{"columns": ["Binder", "koff (s⁻¹)"],
 "data": [
  ["I3RB2 (antibody, IgG1, V domains shown, IgG1; also called I3RB02; 13RB2) VH: EVQLLESGGGLVQPGGSLRLSCAASGFTFSGYWMHWVRQAPGKGLEWVSAIRSDGSSKYYADSVKGRFTISRDNSKNTLYLQMNSLRAEDTAVYYCAKDGVIEDTFDYWGQGTLVTVSS VL: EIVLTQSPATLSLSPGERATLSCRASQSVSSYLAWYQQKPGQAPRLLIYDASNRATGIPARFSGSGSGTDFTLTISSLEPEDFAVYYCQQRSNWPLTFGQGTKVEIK", 0.00477],
  ["I3RB35 (antibody, IgG1, V domains shown, IgG1) VH: QVQLVQSGAEVKKPGSSVKVSCKASGGTFSSYAISWVRQAPGQGLEWMGGIIPIFGTANYAQKFQGRVTITADESTSTAYMELSSLRSEDTAVYYCARHLFWDAGPLDYWGQGTLVTVSS VL: DIQMTQSPSSLSASVGDRVTITCRASQSISSYLNWYQQKPGKAPKLLIYAASSLQSGVPSRFSGSGSGTDFTLTISSLQPEDFATYYCQQYFSPPYTFGQGTKVEIK", 0.00293],
  ["I3RB29 (antibody, IgG1, V domains shown, IgG1) VH: QVQLVQSGAEVKKPGSSVKVSCKASGGTFSSYAISWVRQAPGQGLEWMGGIIPIFGTANYAQKFQGRVTITADESTSTAYMELSSLRSEDTAVYYCARDSRIWSFSLDYWGQGTLVTVSS VL: DIQMTQSPSSLSASVGDRVTITCRASQSIGEWLNWYQQKPGKAPKLLIYAASSLQSGVPSRFSGSGSGTDFTLTISSLQPEDFATYYCQQYYHFPLTFGQGTKVEIK", 0.00132]
]}
